From: patent US20250084079A1

biological target: Avi-KRAS WT (1-169) GppNHp/RAF1 RBD-3xFLAG (52-151) (Homo sapiens); construct: 50 nM Avi-KRAS WT (1-169) GppNHp; test: RAS-effector PPI HTRF disruption assay, Raf1-GppNHp-KRAS WT; assay type: biochemical
Sequence (P01116 1-169 isoform P01116-2): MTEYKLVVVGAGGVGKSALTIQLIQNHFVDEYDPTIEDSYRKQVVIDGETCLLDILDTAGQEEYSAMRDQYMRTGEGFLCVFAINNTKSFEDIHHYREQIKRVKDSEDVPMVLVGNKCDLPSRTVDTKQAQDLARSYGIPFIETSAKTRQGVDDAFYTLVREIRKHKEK
OBSERVED PROPERTY: IC50

Here is how some compounds turned out for IC50.
N#Cc1c(N)sc2c(F)ccc(-c3c(Cl)cc4c(O[C@@H]5CN[C@@H](CO)C5)nc(OC[C@@]56CCCN5C[C@H](F)C6)nc4c3F)c12 (atropisomer, axis not shown) [Compound 69]; 100 to 1000 nM
COC[C@H]1NCC[C@H]1Oc1nc(OC[C@@]23CCCN2C[C@H](F)C3)nc2c(F)c(-c3ccc(F)c4sc(N)c(C#N)c34)c(C(F)(F)F)cc12 [Compound 90]; 100 to 1000 nM

What does the data say about its IC50? Entry: Nc1nc2c(-c3c(C(F)(F)F)cc4c(O[C@@H]5CCNC5)nc(OC[C@@]56CCCN5C[C@H](F)C6)nc4c3Cl)ccc(F)c2s1 (atropisomer, axis not shown) [Compound 10]
1000 to 10000 nM
